The values you see were collected from patent US20210283212A1.

molecular target: human C5 protein (human, UniProt P01031 19-673; P01031 678-1676); test: cell-based or functional assay
Positions of bridges follow the written chain, without caps; N, C: chain ends. Non-standard residues stand in square brackets, D forms with d. Primed or numbered codes have the meaning given here. No end group written: not given here. mXylyl(3) = bridging moiety between the two residues given in brackets; m‑xylyl = bridging moiety between the two residues given in brackets; mXylyl″ = bridging moiety between the two marked residues; Ala(1H-tetrazol-5-yl) = N[C@@H](Cc1nnn[nH]1)C(=O)O; Trp(7-aza) = N[C@@H](Cc1c[nH]c2ncccc12)C(=O)O; mXylyl(4) = bridging moiety between residues; NMePhe(4-F) = CN[C@@H](Cc1ccc(F)cc1)C(=O)O; dPhg = N[C@@H](C(=O)O)c1ccccc1; Chg = N[C@H](C(=O)O)C1CCCCC1; Phg = N[C@H](C(=O)O)c1ccccc1; Tle = CC(C)(C)[C@H](N)C(=O)O; NMeS = CN[C@@H](CO)C(=O)O; NMeA = CN[C@@H](C)C(=O)O; Nva = CCC[C@H](N)C(=O)O; Sar = CNCC(=O)O
Reported Endpoint: Avg. IC50, human hemolysis assay

Record excerpt, results attached:
Binder	Avg. IC50, human hemolysis assay
Ac-CVERFCDVYWEYP-NH2 (linker 1-6 via mXylyl(3)) [R3140]	17.9 nM
Ac-YEN[Tle]YWEYP[Phg][Nva]-NH2 (SMILES CCC[C@H](NC(=O)[C@@H](NC(=O)[C@@H]1CCCN1C(=O)[C@H](Cc1ccc(O)cc1)NC(=O)[C@H](CCC(=O)O)NC(=O)[C@H](Cc1c[nH]c2ccccc12)NC(=O)[C@H](Cc1ccc(O)cc1)NC(=O)[C@@H](NC(=O)[C@H](CC(N)=O)NC(=O)[C@H](CCC(=O)O)NC(=O)[C@H](Cc1ccc(O)cc1)NC(C)=O)C(C)(C)C)c1ccccc1)C(N)=O) [R3041]	71.3 nM
[Nva]CY[Tle][Phg]N[Sar]LC[Phg][NMeA]-NH2 (linker 2-9 via mXylyl(4)) [R3052]	> 100000 nM
Ac-[Nva]C[Phg]T[Trp(7-aza)]EY[NMeS]C[Nva]-NH2 (linker 2-9 via mXylyl(3)) [R3080]	> 50000 nM
Ac-CAERFCD[Tle]Y[Trp(7-aza)]EYP[dPhg]K-NH2 (linker 1-6 via m‑xylyl) [R3162]	16.5 nM

Dear colleague, I am looking for the recorded Avg. IC50, human hemolysis assay of the following binder: Ac-CVERFC[Ala(1H-tetrazol-5-yl)][Tle]Y[Trp(7-aza)]EYP[Chg][Nva]-NH2 (linker 1-6 via mXylyl(3)) [R3168]
7.5 nM

Next binder: Ac-[Nva]C[Phg]TAEY[NMeS]HC[Nva]-NH2 (linker 2-10 via mXylyl(4)) [R3034]
> 50000 nM

Proceed to Ac-[Nva]SYEC[Tle]Y[Trp(7-aza)]EYP[Chg]C[Nva]-NH2 (linker 5-13 via mXylyl(3)) [R3086]
> 50000 nM

Ok, now Ac-[Nva]C[Phg]TFEY[NMeS]AC[Nva]-NH2 (linker 2-10 via mXylyl(3)) [R3092]
> 50000 nM

Similarly, Ac-[Nva]C[Phg]T[Trp(7-aza)]EY[NMeS]HC[Nva]P-NH2 (linker 2-10 via mXylyl″) [R3011] ?
112 nM

// query: [Nva]CY[NMeS][Phg][NMePhe(4-F)][NMeS]H[NMePhe(4-F)][Sar]C-NH2 (linker 2-11 via mXylyl(4)) [R3051]
> 100000 nM
